measured.target: T1, human Trop-2-His protein (human, UniProt P09758 27-274)
T1 construct: extracellular domain; Assay paragraphs say only 'Trop-2-His'; also called hTrop-2; Kactus Cat #TRP-HM121; not shown: His tag
T1 sequence (looked up): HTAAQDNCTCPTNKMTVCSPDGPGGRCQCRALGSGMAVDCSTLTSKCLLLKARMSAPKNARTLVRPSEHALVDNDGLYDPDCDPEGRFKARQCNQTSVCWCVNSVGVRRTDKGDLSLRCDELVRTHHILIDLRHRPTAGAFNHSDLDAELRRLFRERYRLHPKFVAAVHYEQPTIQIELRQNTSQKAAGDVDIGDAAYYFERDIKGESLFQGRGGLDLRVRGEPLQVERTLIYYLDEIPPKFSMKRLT
experimental.protocol: BLI (Gator Prime), LEM supernatant Ab on HFC probe
assay.metric: pKd
Numbers only, as −log10 of the molar value.

Completed entries (count: 2):
>>> measurement("12G6 (antibody, V domains shown, Rabbit-derived clone; LEM construct: VH + rabbit IgG CH1 + human IgG1 CH2-CH3) VH: QEQLKESGGGLVQPGGSLTLSCKASGFDFNNYGVSWVRQAPGKGLEWIGYIYPAYHNTYYATWVNGRFTISSHNAQNTLYLQLNTLTAADTATYFCARDAGNTDYNFNLWGPGTLVTVSS VL: DVVMTQTPASVEVAVGGTVTIKCQASEDIESYLAWYQQKPGQPPKLLIYEASKLASGVSSRFSGGGYGTEFTLTISGVECADAATYYCQQALTIGNVDNPFGGGSEVVVK")
8.91
>>> measurement("9D7 (antibody, V domains shown, Rabbit-derived clone; LEM construct: VH + rabbit IgG CH1 + human IgG1 CH2-CH3) VH: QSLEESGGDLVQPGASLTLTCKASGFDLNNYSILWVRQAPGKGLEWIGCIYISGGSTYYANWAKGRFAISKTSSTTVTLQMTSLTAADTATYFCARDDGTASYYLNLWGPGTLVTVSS VL: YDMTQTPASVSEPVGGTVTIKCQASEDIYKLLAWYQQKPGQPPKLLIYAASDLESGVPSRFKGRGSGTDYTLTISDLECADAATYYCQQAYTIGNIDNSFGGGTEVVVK")
9.95

// below: pKd requested for another binder
Fill in the blank: the reported pKd of 9F7 (antibody, V domains shown, Rabbit-derived clone; LEM construct: VH + rabbit IgG CH1 + human IgG1 CH2-CH3) VH: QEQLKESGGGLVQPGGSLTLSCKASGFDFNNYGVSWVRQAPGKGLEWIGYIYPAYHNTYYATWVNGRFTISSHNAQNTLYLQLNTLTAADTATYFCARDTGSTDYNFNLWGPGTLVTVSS VL: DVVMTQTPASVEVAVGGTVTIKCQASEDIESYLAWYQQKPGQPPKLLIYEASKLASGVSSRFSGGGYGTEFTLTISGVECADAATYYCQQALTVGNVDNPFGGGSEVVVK is ____. 9.96

Numbers sourced from patent US20250206841A1.
